tested on: NCI-H1793; assay: relative viability (nuclei count vs DMSO), 5 days (fraction); higher = more cells survive; conditions: first compound 0.5 µM
quantity_name: relative viability
Lab note: jot the number down without any unit.

Guide cases for relative viability, answers given:
• CC1(C)CCC(c2ccc(Cl)cc2)=C(CN2CCN(c3ccc(C(=O)NS(=O)(=O)c4ccc(N[C@H](CCN5CCOCC5)CSc5ccccc5)c(S(=O)(=O)C(F)(F)F)c4)cc3)CC2)C1 [Navitoclax] + NC(=O)Nc1cc(-c2cccc(F)c2)sc1C(=O)N[C@H]1CCCNC1 [AZD7762] (partner 0.2 µM) = 0.246
• CC1(C)CCC(c2ccc(Cl)cc2)=C(CN2CCN(c3ccc(C(=O)NS(=O)(=O)c4ccc(N[C@H](CCN5CCOCC5)CSc5ccccc5)c(S(=O)(=O)C(F)(F)F)c4)cc3)CC2)C1 [Navitoclax] + Nc1ncn([C@H]2C[C@H](O)[C@@H](CO)O2)c(=O)n1 [Decitabine] (partner 2 µM) = 0.345

Switching to the query record.
QUERY: Record request: relative viability value, item CC1(C)CCC(c2ccc(Cl)cc2)=C(CN2CCN(c3ccc(C(=O)NS(=O)(=O)c4ccc(N[C@H](CCN5CCOCC5)CSc5ccccc5)c(S(=O)(=O)C(F)(F)F)c4)cc3)CC2)C1 [Navitoclax] + Nc1nc2[nH]cc(CCc3ccc(C(=O)N[C@@H](CCC(=O)O)C(=O)O)cc3)c2c(=O)[nH]1 [Pemetrexed] (partner 0.2 µM)
RESULT: 0.643

These measurements were taken from the supplement of paper PMC10307832.
